The origin of these recorded values is ChEMBL document CHEMBL1156077.

Measured Ki, listed per entry for reference.
Target: UniProt:Q9H244
Sequence (Q9H244 whole entry): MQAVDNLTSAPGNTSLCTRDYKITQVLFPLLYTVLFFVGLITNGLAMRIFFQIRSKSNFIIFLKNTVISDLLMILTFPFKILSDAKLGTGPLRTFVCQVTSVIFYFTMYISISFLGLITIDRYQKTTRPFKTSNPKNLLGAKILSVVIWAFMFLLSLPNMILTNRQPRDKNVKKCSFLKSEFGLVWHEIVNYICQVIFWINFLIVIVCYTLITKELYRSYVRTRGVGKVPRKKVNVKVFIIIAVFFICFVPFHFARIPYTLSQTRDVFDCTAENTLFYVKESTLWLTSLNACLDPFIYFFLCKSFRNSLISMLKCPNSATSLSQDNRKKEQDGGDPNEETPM
Experiment: Binding affinity at human recombinant P2Y12 receptor expressed in CHO cells by radioligand binding assay
metric-name: Ki (nM)

INSERT INTO results (compound, measured_number) VALUES
  ('CCCCCOC(=O)N1CCN(C(=O)[C@H](CCC(=O)O)NC(=O)c2nc(-c3ccccc3)cc(N3CCC(N4CCCC4)CC3)n2)CC1', 7.4),
  ('CCCCCOC(=O)N1CCN(C(=O)[C@H](CCC(=O)O)NC(=O)c2nc(-c3ccccc3)cc(N3CCC(OCCOC)CC3)n2)CC1', 7.1),
  ('CCCCOC(=O)N1CCN(C(=O)[C@H](CCC(=O)O)NC(=O)c2cc(OCCOC)nc(-c3ccccc3)n2)CC1', 12),
  ('CCCCCOC(=O)N1CCN(C(=O)[C@H](CCC(=O)O)NC(=O)c2nc(-c3ccccc3)cc(N3CCC(N4CCOCC4)CC3)n2)CC1', 5.9),
  ('CCCCCOC(=O)N1CCN(C(=O)[C@H](CCC(=O)O)NC(=O)c2cc(N3CCN(CCOC)CC3)nc(-c3ccccc3)n2)CC1', 2.3),
  ('CCCCCOC(=O)N1CCN(C(=O)[C@H](CCC(=O)O)NC(=O)c2cc(NCC3CCNC3)nc(-c3ccccc3)n2)CC1 (some centres not stated)', 4.1),
  ('CCCCOC(=O)N1CCN(C(=O)[C@H](CCC(=O)O)NC(=O)c2cc(OC3CCN(C(C)C)CC3)nc(-c3ccccc3)n2)CC1', 19);
